tested on: P12-Ichikawa; test: cell viability relative to DMSO control; higher = less cytotoxic; conditions: RPMI 5 mM glucose + 10% FBS; 48 h; 0.000781 µM
Item-by-item account of cell viability
// note: answer is a bare numeric in %

[
  {
    "Structure notation": "CN(C)[C@H]\\1[C@@H]2[C@@H](O)[C@H]3\\C(=C(O)/[C@]2(O)C(=O)\\C(=C1O)C(N)=O)C(=O)C4=C(C=CC=C4O)[C@@]3(C)O",
    "cell viability (%)": 130
  }
]

## Task Look up cell viability of "CC(C)N(CCCNC(=O)Nc1ccc(C(C)(C)C)cc1)C[C@H]1O[C@@H](n2cc(Br)c3c(N)ncnc32)[C@H](O)[C@@H]1O" and report it.
## Result 87.3

## Task Look up cell viability of "OC[C@H]1O[C@H](C[C@@H]1O)N2\C=C(\I)C(=O)NC2=O" and report it.
## Result 110

## Task Look up cell viability of "NC(=O)Cc1cccc(C(=O)c2ccccc2)c1N" and report it.
## Result 100

## Task Look up cell viability of "O=C(O)c1nn(Cc2ccc(Cl)cc2Cl)c2ccccc12" and report it.
## Result 87.5

###

test system: SEM cells; assay: cell viability relative to DMSO control; higher = less cytotoxic; settings: HPLM + 10% dialyzed FBS; 48 h; 0.00234 µM
Outcome measure: cell viability (%)
// note: answer is a bare numeric in %

[
  {
    "Compound": "CN(C)[C@H]\\1[C@@H]2[C@@H](O)[C@H]3\\C(=C(O)/[C@]2(O)C(=O)\\C(=C1O)C(N)=O)C(=O)C4=C(C=CC=C4O)[C@@]3(C)O",
    "Endpoint unit": "%",
    "Measured result": 95.3
  }
]

Moving on to another compound below.
## Task Write down the reported cell viability (system: SEM cells) of "O=C1N\N=C(\C[C@@H]2CCN(C2)C(=O)C3CC3)N1C4=CC=C(C=C4)C5=CC=C6OC=CC6=C5"
## Result 76.9

###

test system: NOMO1; assay: AUC of viability dose-response curve (% viability x log10 dose units); higher = less sensitive; conditions: RPMI 5 mM glucose + 10% FBS; 48 h
Item-by-item account of AUC of viability dose-response curve
Lab note: write the figure by itself, no unit.

Here are 3 molecules together with their reported answers.
[
  {
    "Structure notation": "COC1=C(CC=C(C)C)C2=C(\\C=C/C(=O)O2)C=C1",
    "Outcome measure": "AUC of viability dose-response curve",
    "Measured result": 455
  },
  {
    "Structure notation": "NCC/1=C/NC(=S)N1[C@H]2CCC3=C(F)C=C(F)C=C3C2",
    "Outcome measure": "AUC of viability dose-response curve",
    "Measured result": 470
  },
  {
    "Structure notation": "COc1cc([S+](C)(=O)[O-])ccc1Nc1nc2ccc(-c3ccc(NC(=O)[C@H](C)c4ccc(F)cc4)cc3)cn2n1",
    "Outcome measure": "AUC of viability dose-response curve",
    "Measured result": 439
  }
]

Moving on to another molecule below.
## Task Write down the reported AUC of viability dose-response curve (system: NOMO1) of "CC(=O)O[C@@]12CO[C@@H]1C[C@H](O)[C@]3(C)[C@@H]2[C@H](OC(=O)C4=CC=CC=C4)[C@]5(O)C[C@H](O)/C(=C(/[C@@H](O)C3=O)C5(C)C)C"
## Result 430

###

Item-by-item account of cell viability
test system: NOMO1; experiment: cell viability relative to DMSO control; higher = less cytotoxic; details: RPMI 5 mM glucose + 10% FBS; 48 h; 0.569 µM
// note: answer is a bare numeric in %

[
  {
    "Compound": "NC(=O)Cc1cccc(C(=O)c2ccccc2)c1N",
    "Measured result": 84.7
  },
  {
    "Compound": "COc1ccccc1N1CCN(CC(O)COc2cccc3ccccc23)CC1 (stereo not drawn)",
    "Measured result": 116
  },
  {
    "Compound": "CN1C(=O)\\C(=C/C2=C1N=C(NC3CCOCC3)N=C2)OC4=C(F)C=C(F)C=C4",
    "Measured result": 87.2
  },
  {
    "Compound": "CNC(=O)c1cc(Oc2ccc(NC(=O)Nc3ccc(Cl)c(C(F)(F)F)c3)c(F)c2)ccn1",
    "Measured result": 95.6
  },
  {
    "Compound": "CNC(=O)c1ccccc1Sc1ccc2c(/C=C/c3ccccn3)n[nH]c2c1",
    "Measured result": 112
  },
  {
    "Compound": "O=C(c1ccc(C(=O)N2CCC(N3CCCC3)CC2)c(Nc2ccccc2)c1)N1CCC(N2CCCC2)CC1",
    "Measured result": 82.3
  }
]

## Task Look up cell viability of "NC(=O)c1c(OCc2c(F)cc(Br)cc2F)nsc1NC(=O)NCCCCN1CCCC1" and report it.
## Result 111

## Task Look up cell viability of O=C1C(CCC(O)c2ccc(F)cc2)C(c2ccc(O)cc2)N1c1ccc(F)cc1 (stereo not drawn) and report it.
## Result 112

###

Item-by-item account of cell viability
test system: NOMO1; assay: cell viability relative to DMSO control; higher = less cytotoxic; conditions: RPMI 5 mM glucose + 10% dialyzed FBS; 48 h; 0.569 µM
// note: answer is a bare numeric in %

Here are 5 compounds together with their reported answers.
[
  {
    "Compound": "N[S+](=O)([O-])c1cc2c(cc1Cl)NCN[S+]2(=O)[O-]",
    "Endpoint unit": "%",
    "cell viability": 117
  },
  {
    "Compound": "Clc1ccc(C(Cn2ccnc2)OCc2ccsc2Cl)c(Cl)c1 (stereo not given)",
    "Endpoint unit": "%",
    "cell viability": 118
  },
  {
    "Compound": "CC[P](CC)(CC)=[Au][S][C@@H]1O[C@H](COC(C)=O)[C@@H](OC(C)=O)[C@H](OC(C)=O)[C@H]1OC(C)=O",
    "Endpoint unit": "%",
    "cell viability": 108
  },
  {
    "Compound": "CNC(=O)c1cc(Oc2ccc(NC(=O)Nc3ccc(Cl)c(C(F)(F)F)c3)c(F)c2)ccn1",
    "Endpoint unit": "%",
    "cell viability": 104
  },
  {
    "Compound": "Cc1ccc(C)c(OCCCC(C)(C)C(=O)O)c1",
    "Endpoint unit": "%",
    "cell viability": 101
  }
]

## Task Look up cell viability of "O=C(N[C@H]1CN2CCC1CC2)c1ccc(Cl)cc1" and report it.
## Result 103

## Task Look up cell viability of "CO[C@H]1C[C@H]2OC[C@@]2(OC(C)=O)[C@H]3[C@H](OC(=O)C4=CC=CC=C4)[C@]5(O)C[C@H](OC(=O)[C@H](O)[C@@H](NC(=O)OC(C)(C)C)C6=CC=CC=C6)/C(=C(/[C@@H](OC)C(=O)[C@]13C)C5(C)C)C" and report it.
## Result 13.7

## Task Look up cell viability of "O=C1N\N=C(\C[C@@H]2CCN(C2)C(=O)C3CC3)N1C4=CC=C(C=C4)C5=CC=C6OC=CC6=C5" and report it.
## Result 85.4

## Task Look up cell viability of "O=C(Nc1cccc2c(=O)cc(-c3nnn[nH]3)oc12)c1ccc(OCCCCc2ccccc2)cc1" and report it.
## Result 94.4

## Task Look up cell viability of "OC[C@H]1O[C@H](C[C@@H]1O)N2\C=C(\I)C(=O)NC2=O" and report it.
## Result 133

###

Item-by-item account of cell viability
test system: P12-Ichikawa; assay: cell viability relative to DMSO control; higher = less cytotoxic; conditions: RPMI 5 mM glucose + 10% dialyzed FBS; 48 h; 1.71 µM
// note: answer is a bare numeric in %

[
  {
    "Structure notation": "NC/1=N/C(=O)C2=C([NH]C=C2CCC3=CC=C(C=C3)C(=O)N[C@@H](CCC(O)=O)C(O)=O)N1",
    "Target or system": "P12-Ichikawa",
    "cell viability, %": 88.4
  }
]

## Task Look up cell viability of "CC/C(=C(\c1ccccc1)c1ccc(OCCN(C)C)cc1)c1ccccc1" and report it.
## Result 117

## Task Look up cell viability of "CN(C)c1ccccc1CN1CCCN(Cc2ccccc2N(C)C)C1c1ccncc1" and report it.
## Result 93.4

## Task Look up cell viability of "COc1cc([C@@H]2c3cc4c(cc3[C@H](O)[C@H]3COC(=O)[C@H]23)OCO4)cc(OC)c1OC" and report it.
## Result 7.78

###

Item-by-item account of cell viability
system: SEM cells; test: cell viability relative to DMSO control; higher = less cytotoxic; conditions: RPMI 5 mM glucose + 10% dialyzed FBS; 48 h; 0.00234 µM
// note: answer is a bare numeric in %

[
  {
    "Compound": "CON(C)C(=O)N1\\N=C(/S[C@]1(CCCN)C2=CC=CC=C2)C3=CC(=CC=C3F)F",
    "Outcome measure": "cell viability",
    "Endpoint unit": "%",
    "Measured result": 21.1
  },
  {
    "Compound": "COC1=CC=CC(=C1/C2=N/CC3=C(N=C(NC4=CC(=C(C=C4)C(O)=O)OC)N=C3)C5=CC=C(Cl)C=C25)F",
    "Outcome measure": "cell viability",
    "Endpoint unit": "%",
    "Measured result": 80.7
  },
  {
    "Compound": "COc1cc([S+](C)(=O)[O-])ccc1Nc1nc2ccc(-c3ccc(NC(=O)[C@H](C)c4ccc(F)cc4)cc3)cn2n1",
    "Outcome measure": "cell viability",
    "Endpoint unit": "%",
    "Measured result": 112
  }
]

## Task Write down the reported cell viability (system: SEM cells) of CCCCCCCN(CC)CCCC(O)c1ccc(NS(C)(=O)=O)cc1.CCCCCCCN(CC)CCCC(O)c1ccc(NS(C)(=O)=O)cc1.O=C(O)/C=C/C(=O)O (configuration not stated)
## Result 99.9

## Task Write down the reported cell viability (system: SEM cells) of "O=C(c1ccc(C(=O)N2CCC(N3CCCC3)CC2)c(Nc2ccccc2)c1)N1CCC(N2CCCC2)CC1"
## Result 91.2

## Task Write down the reported cell viability (system: SEM cells) of "COC1=CC(=C2C(=O)N(COC/3=C/C(=O)N4\C=C/C=C(OCCN5CCCCC5)\C4=N3)[S+]([O-])(=O)C2=C1)C(C)C"
## Result 113

## Task Write down the reported cell viability (system: SEM cells) of "CCNC(=O)c1noc(-c2cc(C(C)C)c(O)cc2O)c1-c1ccc(CN2CCOCC2)cc1"
## Result 95.7

## Task Write down the reported cell viability (system: SEM cells) of "CCC1=C2CN3C(=O)\C4=C(/C=C3/C2=NC5=CC=C(O)C=C15)[C@@](O)(CC)C(=O)OC4"
## Result 89.1
